- Assay text: Oral bioavailability in rat
- Assay type: ADME, organism-based
- Protocol conditions: in vivo
Recorded endpoint: bioavailability (%)
Output spec: scalar in %, unitless text.

Consider the compound COc1cc2c(cc1Cc1cccc(Cl)c1F)c(=O)c(C(=O)O)cn2[C@H](CO)C(C)C and give its recorded bioavailability.
30
